Each recorded value in this set is attributed to the supplement of paper PMC13380429.

Each entry below carries its recorded cell viability.
# Tested on: HepG2
# assay comment: cell viability relative to DMSO; higher = less toxic
# assay context: 72 h; 1000 nM
Answer format: numeric, % implied, no suffix.

# compound, measured attribute, value
rows = [
    ("O=C(c1cc(S(=O)(=O)Nc2ccccc2F)c(F)cc1Cl)N1CCN2CCC[C@@H]2C1 [ABT-639]", "cell viability", 105),
]

Record request: cell viability value, item O=C(O)Cc1cc2ccccc2nc1C(=O)O [CCMQ]
109

Query: cell viability; subject: N[C@@H](C(=O)O)c1nn[nH]n1 (racemic) [tetrazol-5-yl-glycine-(RS)]
96.6

Requested read-out: cell viability. Entry: CNCC[C@H](Oc1cccc2ccccc12)c1cccs1 [duloxetine]
101

Item under review: COc1ccc(-n2c(SCc3nc(-c4ccc(C)cc4)no3)nnc2-c2ccncc2)cc1 [JW-74] . Reported cell viability?
95.3

# get_value(readout='cell viability', item= CC1(C)S[C@@H]2[C@H](NC(=O)Cc3ccccc3)C(=O)N2[C@H]1C(=O)O [benzylpenicillin] )
99

Form field: reported cell viability of CN(C)CCCO[C@@H]1[C@H]2OC(C)(C)O[C@H]2O[C@@H]1[C@H](O)CO [amiprilose]
99.6
